# Tested on: NOMO-1 (Acute Myeloid Leukemia)
# Procedure Summary: combination Emax (second highest fraction inhibited in the dose matrix, 72 h); higher = more inhibition; extreme values may be limits of the assay
Attribute Measured: combination Emax

Compound	Experimental System	Attribute Measured	Observed
C[C@@H](Oc1cc(-c2cnn(C3CCNCC3)c2)cnc1N)c1c(Cl)ccc(F)c1Cl [Crizotinib] + CC1=C(C(=CC=C1)Cl)NC(=O)C2=CN=C(S2)NC3=CC(=NC(=N3)C)N4CCN(CC4)CCO [Dasatinib] (first compound max 10 µM, 7x7, partner max 2 µM)	NOMO-1 (Acute Myeloid Leukemia)	combination Emax	0.528
NC1(C(=O)N[C@@H](CCO)c2ccc(Cl)cc2)CCN(c2ncnc3[nH]ccc23)CC1 [Capivasertib] + CCN(CCO)CCCOc1ccc2c(Nc3cc(CC(=O)Nc4cccc(F)c4)[nH]n3)ncnc2c1 [AZD2811] (first compound max 10 µM, 7x7, partner max 1 µM)	NOMO-1 (Acute Myeloid Leukemia)	combination Emax	0.735
CC1(C)CCC(CN2CCN(c3ccc(C(=O)NS(=O)(=O)c4ccc(NCC5CCOCC5)c([N+](=O)[O-])c4)c(Oc4cnc5[nH]ccc5c4)c3)CC2)=C(c2ccc(Cl)cc2)C1 [Venetoclax] + C1CN(CCC1(C(=O)N[C@@H](CCO)C2=CC=C(C=C2)Cl)N)C3=NC=NC4=C3C=CN4 [Capivasertib] (first compound max 1 µM, 7x7, partner max 3 µM)	NOMO-1 (Acute Myeloid Leukemia)	combination Emax	0.919
CN(CCO)CC[C@H](CSc1ccccc1)Nc1ccc(S(=O)(=O)NC(=O)c2ccc(N3CCC([C@@H](O)c4ccccc4-c4ccc(Cl)cc4)CC3)cc2)cc1S(=O)(=O)C(F)(F)F [AZD4320] + CS(=O)(=O)CCNCc1ccc(-c2ccc3ncnc(Nc4ccc(OCc5cccc(F)c5)c(Cl)c4)c3c2)o1 [Lapatinib] (first compound max 1 µM, 7x7, partner max 10 µM)	NOMO-1 (Acute Myeloid Leukemia)	combination Emax	0.709

src = the supplement of paper PMC11061612
